Test system: NCI-H522 lung
EXPERIMENTAL_PROTOCOL: NCI tumour cell line growth inhibition, 48 h
GI50: recorded values

[
  {
    "COMPOUND": "O=c1oc(-c2ccc(O)c(O)c2)cc2cc(O)cc(O)c12",
    "GI50": "27300 nM"
  },
  {
    "COMPOUND": "CCCC/C(=N\\N=C(N)N)c1ccc(F)cc1",
    "GI50": "3790 nM"
  },
  {
    "COMPOUND": "Cc1nn(-c2ccccc2)c2c1C1C(=C(c3ccc(Cl)cc3)N2)C(=O)Nc2ccccc21 (configuration not stated)",
    "GI50": "1780 nM"
  },
  {
    "COMPOUND": "COc1ccccc1Cn1cc2c(c1)-c1oncc1CC2",
    "GI50": "1220 nM"
  },
  {
    "COMPOUND": "COc1cc(C2C3=C(COC3=O)N(CCO)c3cc4c(cc32)CCC4)cc(OC)c1O (configuration not stated)",
    "GI50": "43.2 nM"
  },
  {
    "COMPOUND": "Oc1ccc2ccccc2c1-c1nnc(CCCCCCCCc2nnc(-c3c(O)ccc4ccccc34)o2)o1",
    "GI50": "1530 nM"
  },
  {
    "COMPOUND": "O=C1C=C(Nc2cccc(Br)c2)c2ccccc2C1=O",
    "GI50": "4790 nM"
  },
  {
    "COMPOUND": "CN1C(=O)c2cc(Cl)nc3c(NC(=O)c4cccc(Cl)c4)c(Cl)c(NC(=O)c4cccc(Cl)c4)c1c23",
    "GI50": "1820 nM"
  },
  {
    "COMPOUND": "COC(=O)[C@H](Cc1ccccc1)NC(=O)c1csc([C@@H](C[C@H](C(C)C)N(C)C(=O)[C@@H](NC(=O)[C@H]2CCCCN2C)C2CC2)OC(C)=O)n1",
    "GI50": "6.54 nM"
  },
  {
    "COMPOUND": "C/C(=C(/c1ccc(O)cc1)c1ccc(OCCN2CCCC2)cc1)c1ccccc1",
    "GI50": "2100 nM"
  },
  {
    "COMPOUND": "Cc1ccc(NCSc2ccc(Cl)cc2)cc1",
    "GI50": "21900 nM"
  },
  {
    "COMPOUND": "O=C1OC(c2ccc(O)cc2)(c2ccc(O)cc2)c2cccc3cccc1c23",
    "GI50": "14000 nM"
  }
]
